assay: clinical; settings: human, plasma, po, 400 mg
Reported metric: Cmax (ng/mL)

1) Nc1ncccc1-c1cc(Cc2ccc(COc3ccccn3)cc2)no1 : 4250

---

assay: Study #2 Phase 1: pharmacokinetics after single IV and single/multiple oral doses of Compound 1, absolute oral bioavailability; conditions: human, plasma, po, 500 mg;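 note: phase 1 study design: one IV dose, then escalating single oral doses, fed versus fasted single oral dosing, and once-daily oral dosing over 14 days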
Reported metric: bioavailability (%)

1. Nc1ncccc1-c1cc(Cc2ccc(COc3ccccn3)cc2)no1 : 93.5

---

assay: Study #1 Phase 1: plasma and urine pharmacokinetics of Compound 1 and Compound 1A after IV infusion of Compound 1 (SAD, MAD, loading regimen); settings: both, human, plasma, 275 mg, AUC(0-t), Cohort 5: Compound 1 275 mg/3 hr IV, single dose, geometric mean [geometric %CV]
Reported metric: AUC(0-t) (µg·h/mL)

1. Nc1ncccc1-c1cc(Cc2ccc(COc3ccccn3)cc2)no1 : 114

---

experiment: Study #1 Phase 1: plasma and urine pharmacokinetics of Compound 1 and Compound 1A after IV infusion of Compound 1 (SAD, MAD, loading regimen); settings: both, human, plasma, 100 mg, AUC(0-24), Cohort 3: Compound 1 100 mg/3 hr IV, single dose, geometric mean [geometric %CV]
Reported metric: AUC(0-t)

1) Nc1ncccc1-c1cc(Cc2ccc(COc3ccccn3)cc2)no1 [Compound 1A] : 14400 ng·h/mL

---

assay: Study #1 Phase 1: plasma and urine pharmacokinetics of Compound 1 and Compound 1A after IV infusion of Compound 1 (SAD, MAD, loading regimen); settings: both, human, plasma, 150 mg, AUC(0-24), Cohort 8: Compound 1 150 mg/3 hr IV QD × 14 days, Day 1, geometric mean
Reported metric: AUC(0-t) (ng·h/mL)

1) Nc1ncccc1-c1cc(Cc2ccc(COc3ccccn3)cc2)no1 : 19400

---

assay: Compound 1 pH solubility at room temperature; assay type: physicochemical; details: pH 7, aqueous buffer, Study A, pH 7, saturation not achieved
Reported metric: solubility

1) Nc1c(-c2cc(Cc3ccc(COc4ccccn4)cc3)no2)ccc[n+]1COP(=O)([O-])O : > 17.6 mg/mL

---

experiment: Study #1 Phase 1: plasma and urine pharmacokinetics of Compound 1 and Compound 1A after IV infusion of Compound 1 (SAD, MAD, loading regimen); conditions: both, human, plasma, 275 mg, AUC(0-24), Cohort 5: Compound 1 275 mg/3 hr IV, single dose, geometric mean [geometric %CV]
Reported metric: AUC(0-t) (µg·h/mL)

1. Nc1ncccc1-c1cc(Cc2ccc(COc3ccccn3)cc2)no1 : 37.1

---

assay: Study #1 Phase 1: plasma and urine pharmacokinetics of Compound 1 and Compound 1A after IV infusion of Compound 1 (SAD, MAD, loading regimen); conditions: both, human, plasma, 1000 mg, AUC(inf), Cohort 11: Compound 1 1,000 mg/0.5 hr IV, single dose, geometric mean
Reported metric: AUC(0-inf) (µg·h/mL)

1) Nc1ncccc1-c1cc(Cc2ccc(COc3ccccn3)cc2)no1 : 434

---

test: Study #1 Phase 1: plasma and urine pharmacokinetics of Compound 1 and Compound 1A after IV infusion of Compound 1 (SAD, MAD, loading regimen); conditions: both, human, plasma, 600 mg, Tmax, Cohort 12 loading regimen: Compound 1 600 mg/1 hr IV QD, Day 7, median
Reported metric: Tmax (h)

1) Nc1ncccc1-c1cc(Cc2ccc(COc3ccccn3)cc2)no1 : 1

---

assay: Study #1 Phase 1: plasma and urine pharmacokinetics of Compound 1 and Compound 1A after IV infusion of Compound 1 (SAD, MAD, loading regimen); details: both, human, plasma, 150 mg, Cmax, Cohort 8: Compound 1 150 mg/3 hr IV QD × 14 days, Day 1, geometric mean
Reported metric: Cmax (ng/mL)

1) Nc1ncccc1-c1cc(Cc2ccc(COc3ccccn3)cc2)no1 [Compound 1A] : 1860
